molecular target: 3',5'-cyclic-AMP phosphodiesterase 4A (Homo sapiens, UniProt P27815); assay: Inhibition of recombinant human N-terminal GST-tagged PDE4A4 (2 to 886 residues) expressed in baculovirus infected Sf9 cells using cAMP as substrate after 1 hr by LANCE TR-FRET assay
Sequence (P27815 whole entry, the tested form may be a part): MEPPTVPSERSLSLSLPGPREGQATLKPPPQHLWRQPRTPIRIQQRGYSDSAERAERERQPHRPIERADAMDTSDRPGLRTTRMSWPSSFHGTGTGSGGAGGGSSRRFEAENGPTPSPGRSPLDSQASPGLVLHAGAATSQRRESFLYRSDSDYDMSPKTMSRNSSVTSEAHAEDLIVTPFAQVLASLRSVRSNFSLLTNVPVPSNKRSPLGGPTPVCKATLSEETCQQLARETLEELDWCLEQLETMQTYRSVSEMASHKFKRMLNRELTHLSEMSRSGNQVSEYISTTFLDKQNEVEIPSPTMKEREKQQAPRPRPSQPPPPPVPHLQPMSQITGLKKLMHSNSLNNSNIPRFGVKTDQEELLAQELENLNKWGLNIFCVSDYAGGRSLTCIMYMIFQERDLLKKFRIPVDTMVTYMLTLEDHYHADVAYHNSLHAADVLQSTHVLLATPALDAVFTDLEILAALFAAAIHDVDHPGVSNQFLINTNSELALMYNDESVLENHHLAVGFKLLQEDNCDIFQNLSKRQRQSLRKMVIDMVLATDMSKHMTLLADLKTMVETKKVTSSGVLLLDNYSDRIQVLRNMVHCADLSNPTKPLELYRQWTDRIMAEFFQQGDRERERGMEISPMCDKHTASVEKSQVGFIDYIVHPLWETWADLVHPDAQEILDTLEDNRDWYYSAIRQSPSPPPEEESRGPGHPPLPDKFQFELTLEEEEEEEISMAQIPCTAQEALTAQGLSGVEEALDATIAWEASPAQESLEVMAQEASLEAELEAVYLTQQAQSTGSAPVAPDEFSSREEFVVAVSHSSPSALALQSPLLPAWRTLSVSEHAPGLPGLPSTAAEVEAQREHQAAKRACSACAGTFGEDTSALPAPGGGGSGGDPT
metricName: pIC50
# log scale: pIC50 equals minus log10 of the concentration in mol/L

Exercise: Item under review: COc1ccc(NC(=O)c2cnc(C(F)(F)F)nc2N2CCOCC2)cc1OC . Reported pIC50?
Key: 7.00

Exercise: For COc1ccc(CCNC(=O)c2cnc(SC)nc2N2CCOCC2)cc1OC then?
Key: 6.55

Exercise: Also, COc1ccc(-c2nc(C(F)(F)F)ncc2C(=O)Nc2c(Cl)cncc2Cl)cc1OC please.
Key: 7.05

====

Give measured IC50 for each item. Keep answers brief.
molecular target: 3',5'-cyclic-AMP phosphodiesterase 4D (Homo sapiens); assay: Inhibition of recombinant human N-terminal GST-tagged PDE4D7 (2 to 748 residues) expressed in baculovirus infected Sf9 cells using cAMP as substrate after 1 hr by LANCE TR-FRET assay
Sequence (Q08499 whole entry, the tested form may be a part): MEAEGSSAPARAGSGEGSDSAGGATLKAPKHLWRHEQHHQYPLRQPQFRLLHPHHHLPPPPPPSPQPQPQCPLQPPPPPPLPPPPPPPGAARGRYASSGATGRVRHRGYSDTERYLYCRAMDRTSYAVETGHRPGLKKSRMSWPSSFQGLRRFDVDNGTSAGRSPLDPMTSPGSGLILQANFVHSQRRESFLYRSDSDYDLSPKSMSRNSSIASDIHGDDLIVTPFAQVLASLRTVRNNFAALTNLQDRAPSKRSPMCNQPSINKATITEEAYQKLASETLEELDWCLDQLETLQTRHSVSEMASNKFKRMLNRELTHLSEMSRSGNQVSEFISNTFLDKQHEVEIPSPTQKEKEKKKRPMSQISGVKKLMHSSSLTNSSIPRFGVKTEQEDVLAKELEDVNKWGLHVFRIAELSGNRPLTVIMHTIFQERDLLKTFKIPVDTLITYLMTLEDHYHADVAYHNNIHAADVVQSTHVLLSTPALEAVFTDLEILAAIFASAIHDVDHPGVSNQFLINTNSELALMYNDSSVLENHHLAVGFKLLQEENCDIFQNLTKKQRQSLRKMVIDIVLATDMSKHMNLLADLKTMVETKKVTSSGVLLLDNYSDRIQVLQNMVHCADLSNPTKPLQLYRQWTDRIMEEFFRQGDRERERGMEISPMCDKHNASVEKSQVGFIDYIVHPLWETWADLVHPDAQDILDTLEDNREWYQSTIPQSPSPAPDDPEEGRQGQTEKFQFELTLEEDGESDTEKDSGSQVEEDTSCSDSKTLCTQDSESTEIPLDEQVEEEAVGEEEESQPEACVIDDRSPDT
Please state the figure in nM; there is no need to write the unit.

Exercise: Which IC50 value is on record for COc1ccc(CCNC(=O)c2cnc(SC)nc2N2CCOCC2)cc1OC ?
Key: 136

Exercise: Similarly, COc1ccc(NC(=O)c2cnc(C(F)(F)F)nc2N2CCOCC2)cc1OC ?
Key: 385

Exercise: What do you have for COc1ccc(-c2nc(C(F)(F)F)ncc2C(=O)Nc2c(Cl)cncc2Cl)cc1OC ?
Key: 360

====

For each of the compounds below, state its IC50.
target: UniProt Q07343; assay: Inhibition of recombinant human full length N-terminal GST-tagged PDE4B1 expressed in baculovirus infected Sf9 cells using cAMP as substrate after 1 hr by LANCE TR-FRET assay
Return type: number; implicit unit nM.

Exercise: What value of measured IC50 is listed for COc1ccc(-c2nc(C(F)(F)F)ncc2C(=O)Nc2c(Cl)cncc2Cl)cc1OC ?
Key: 44

Exercise: Again, but for COc1ccc(CCNC(=O)c2cnc(SC)nc2N2CCOCC2)cc1OC
Key: 61

Exercise: Repeat with COc1ccc(NC(=O)c2cnc(SC)nc2N2CCOCC2)cc1OC
Key: 31

Exercise: Next record, please: COc1ccc(-c2nc(C(F)(F)F)ncc2C(=O)Nc2ccncc2)cc1OC
Key: 15

Exercise: Same question for COc1ccc(NC(=O)c2cnc(C(F)(F)F)nc2N2CCOCC2)cc1OC please.
Key: 67

====

target: 3',5'-cyclic-AMP phosphodiesterase 4B (Homo sapiens); assay: Inhibition of recombinant full length human N-terminal GST-tagged PDE4B1 expressed in baculovirus infected Sf9 cells using cAMP as substrate after 1 hr by LANCE TR-FRET assay
Sequence (Q07343 whole entry): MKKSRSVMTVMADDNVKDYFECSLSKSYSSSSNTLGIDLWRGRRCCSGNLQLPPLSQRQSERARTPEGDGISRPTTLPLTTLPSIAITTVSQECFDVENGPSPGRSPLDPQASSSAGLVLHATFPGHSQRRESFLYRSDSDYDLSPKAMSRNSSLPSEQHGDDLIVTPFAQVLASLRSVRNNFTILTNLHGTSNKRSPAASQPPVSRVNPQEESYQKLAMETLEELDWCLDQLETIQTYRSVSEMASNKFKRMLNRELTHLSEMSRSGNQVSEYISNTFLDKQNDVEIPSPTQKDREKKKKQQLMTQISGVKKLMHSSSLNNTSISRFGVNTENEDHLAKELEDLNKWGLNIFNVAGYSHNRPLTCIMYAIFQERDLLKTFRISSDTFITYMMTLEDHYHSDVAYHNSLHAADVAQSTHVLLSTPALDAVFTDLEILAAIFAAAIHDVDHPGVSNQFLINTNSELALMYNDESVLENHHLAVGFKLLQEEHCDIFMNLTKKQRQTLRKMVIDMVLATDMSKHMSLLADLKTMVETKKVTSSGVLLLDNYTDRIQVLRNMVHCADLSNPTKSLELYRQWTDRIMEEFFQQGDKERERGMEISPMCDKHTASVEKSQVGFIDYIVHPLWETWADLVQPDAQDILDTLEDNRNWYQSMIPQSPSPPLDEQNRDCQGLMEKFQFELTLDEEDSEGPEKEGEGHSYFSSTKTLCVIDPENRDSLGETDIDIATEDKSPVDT
Assignment: determine reported pIC50 for the given compounds.
The scale used: pIC50 is minus the common logarithm of the concentration in molar units.

Exercise: Query (compound): COc1ccc(-c2nc(C(F)(F)F)ncc2C(=O)Nc2c(C(C)C)cccc2C(C)C)cc1OC ; field requested: pIC50
Key: 6.65

Exercise: Field entry: COc1ccc(CCNC(=O)c2cnc(SC)nc2N2CCN(CCO)CC2)cc1OC
Key: 6.62

Exercise: Lookup COc1ccc(CCNC(=O)c2cnc(C(F)(F)F)nc2N2CCOCC2)cc1OC
Key: 6.82

Exercise: Query COc1ccc(CCNC(=O)c2cnc(SC)nc2N2CCOCC2)cc1OC next
Key: 7.21

====

Consider the following compounds; for each one, report its pIC50.
target: 3',5'-cyclic-AMP phosphodiesterase 4A (Homo sapiens); assay: Inhibition of recombinant full length human N-terminal GST-tagged PDE4A1 expressed in baculovirus infected Sf9 cells using cAMP as substrate after 1 hr by LANCE TR-FRET assay
Hey, just a heads up that pIC50 is the negative log base 10 of the concentration in molar.

Exercise: Suppose we examine the compound COc1ccc(-c2nc(C(F)(F)F)ncc2C(=O)Nc2ccncc2)cc1OC ; what pIC50 value has been reported?
Key: 7.01

Exercise: Do the same for COc1ccc(NC(=O)c2cnc(SC)nc2N2CCOCC2)cc1OC please
Key: 6.12

Exercise: Ok, now COc1ccc(-c2nc(C(F)(F)F)ncc2C(=O)Nc2c(Cl)cncc2Cl)cc1OC
Key: 6.55

Exercise: Do the same for COc1ccc(NC(=O)c2cnc(C(F)(F)F)nc2N2CCOCC2)cc1OC please
Key: 6.17

====

molecular target: cGMP-inhibited 3',5'-cyclic phosphodiesterase 3B (Homo sapiens, UniProt Q13370); assay: Inhibition of recombinant human N-terminal GST-tagged PDE3B (592-end residues) expressed in baculovirus infected Sf9 cells using cAMP as substrate after 1 hr by LANCE TR-FRET assay
Sequence (Q13370 whole entry): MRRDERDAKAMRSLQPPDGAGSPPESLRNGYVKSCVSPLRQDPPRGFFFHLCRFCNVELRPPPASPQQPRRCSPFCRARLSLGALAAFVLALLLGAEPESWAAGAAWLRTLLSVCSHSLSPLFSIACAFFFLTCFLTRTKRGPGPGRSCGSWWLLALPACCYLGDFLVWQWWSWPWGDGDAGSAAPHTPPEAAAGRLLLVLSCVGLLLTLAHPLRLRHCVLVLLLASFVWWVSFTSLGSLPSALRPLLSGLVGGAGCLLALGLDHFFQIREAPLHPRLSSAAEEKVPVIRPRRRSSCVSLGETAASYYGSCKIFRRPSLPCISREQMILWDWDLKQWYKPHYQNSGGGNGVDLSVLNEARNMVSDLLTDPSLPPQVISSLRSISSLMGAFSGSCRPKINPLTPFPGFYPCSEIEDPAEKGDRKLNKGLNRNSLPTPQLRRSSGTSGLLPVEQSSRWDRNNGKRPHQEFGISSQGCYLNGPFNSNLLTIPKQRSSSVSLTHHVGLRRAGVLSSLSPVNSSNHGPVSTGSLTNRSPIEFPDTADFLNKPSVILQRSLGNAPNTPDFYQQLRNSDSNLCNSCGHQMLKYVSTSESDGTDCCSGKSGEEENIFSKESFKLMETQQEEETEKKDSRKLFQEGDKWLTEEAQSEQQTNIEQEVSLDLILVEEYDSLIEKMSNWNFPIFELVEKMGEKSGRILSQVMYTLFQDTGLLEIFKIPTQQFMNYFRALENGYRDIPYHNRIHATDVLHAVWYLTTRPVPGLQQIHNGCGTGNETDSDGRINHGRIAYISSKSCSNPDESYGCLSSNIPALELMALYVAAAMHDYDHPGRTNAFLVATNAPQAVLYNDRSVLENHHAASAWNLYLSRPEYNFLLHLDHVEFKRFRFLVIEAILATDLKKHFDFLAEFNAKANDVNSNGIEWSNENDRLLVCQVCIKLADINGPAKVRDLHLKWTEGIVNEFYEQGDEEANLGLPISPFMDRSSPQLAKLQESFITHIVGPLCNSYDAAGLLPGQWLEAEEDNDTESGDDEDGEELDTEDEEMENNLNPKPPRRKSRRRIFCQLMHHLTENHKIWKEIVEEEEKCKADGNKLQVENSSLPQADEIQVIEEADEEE
Give IC50 for every item shown.
Respond with the bare value in nM.

Exercise: What does the record list as IC50 for COc1ccc(NC(=O)c2cnc(C(F)(F)F)nc2N2CCOCC2)cc1OC ?
Key: 950

Exercise: What about COc1ccc(-c2nc(C(F)(F)F)ncc2C(=O)Nc2c(Cl)cncc2Cl)cc1OC ?
Key: 321
